Would you mind telling me the reported EC50 (nM), cleavage of purified hC3 in vitro of each entry?
# systemName: human complement protein C3 (human) (UniProt P01024)
# Sequence (P01024 23-667, chain 1 of 2): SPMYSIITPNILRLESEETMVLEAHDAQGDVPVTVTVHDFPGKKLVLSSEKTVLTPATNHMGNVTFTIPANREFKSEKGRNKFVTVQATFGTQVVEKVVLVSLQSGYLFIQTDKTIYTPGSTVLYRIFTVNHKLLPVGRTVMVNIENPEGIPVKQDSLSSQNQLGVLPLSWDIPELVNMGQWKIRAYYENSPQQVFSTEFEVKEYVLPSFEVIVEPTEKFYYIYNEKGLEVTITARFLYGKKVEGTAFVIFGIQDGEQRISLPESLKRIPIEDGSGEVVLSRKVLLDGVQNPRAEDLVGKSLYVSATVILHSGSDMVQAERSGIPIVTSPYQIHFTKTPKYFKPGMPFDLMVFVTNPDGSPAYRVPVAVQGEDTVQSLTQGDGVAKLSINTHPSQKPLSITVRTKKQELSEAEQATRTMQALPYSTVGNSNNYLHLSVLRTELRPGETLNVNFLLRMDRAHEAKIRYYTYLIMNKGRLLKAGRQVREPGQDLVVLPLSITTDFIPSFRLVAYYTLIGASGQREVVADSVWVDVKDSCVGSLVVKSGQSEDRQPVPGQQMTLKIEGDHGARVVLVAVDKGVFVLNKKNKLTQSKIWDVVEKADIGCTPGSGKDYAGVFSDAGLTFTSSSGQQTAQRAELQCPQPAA
# Sequence (P01024 672-1663, chain 2 of 2): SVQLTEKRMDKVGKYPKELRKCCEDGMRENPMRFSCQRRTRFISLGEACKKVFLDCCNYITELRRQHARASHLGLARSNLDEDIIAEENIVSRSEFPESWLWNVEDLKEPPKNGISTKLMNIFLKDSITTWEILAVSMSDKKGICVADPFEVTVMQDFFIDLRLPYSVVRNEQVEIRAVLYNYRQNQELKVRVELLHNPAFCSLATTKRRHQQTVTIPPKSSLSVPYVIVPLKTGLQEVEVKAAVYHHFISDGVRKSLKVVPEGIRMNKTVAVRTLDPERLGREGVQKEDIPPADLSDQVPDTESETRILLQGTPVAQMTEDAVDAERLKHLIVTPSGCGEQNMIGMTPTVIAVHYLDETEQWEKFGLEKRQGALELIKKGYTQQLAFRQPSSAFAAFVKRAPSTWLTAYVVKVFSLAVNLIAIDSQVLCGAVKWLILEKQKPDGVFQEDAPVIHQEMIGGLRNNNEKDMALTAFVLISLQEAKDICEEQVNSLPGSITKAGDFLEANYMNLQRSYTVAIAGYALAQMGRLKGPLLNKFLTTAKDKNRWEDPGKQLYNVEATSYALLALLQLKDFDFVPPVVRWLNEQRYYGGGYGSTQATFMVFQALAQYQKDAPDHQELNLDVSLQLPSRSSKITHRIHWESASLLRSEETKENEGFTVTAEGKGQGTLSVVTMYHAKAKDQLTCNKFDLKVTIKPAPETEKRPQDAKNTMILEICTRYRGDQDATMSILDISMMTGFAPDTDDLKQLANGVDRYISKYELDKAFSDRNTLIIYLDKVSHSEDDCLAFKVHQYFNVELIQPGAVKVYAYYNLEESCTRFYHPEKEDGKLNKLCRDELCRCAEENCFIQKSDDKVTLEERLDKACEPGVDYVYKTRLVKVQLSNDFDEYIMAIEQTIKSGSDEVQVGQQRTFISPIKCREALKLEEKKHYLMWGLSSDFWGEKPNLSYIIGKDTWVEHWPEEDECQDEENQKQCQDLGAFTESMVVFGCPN
# testName: cell-based or functional assay
One number for each entry, in nM.

[[record]]
binder = "Q38F/I41S/D60bF/F60eR/Y60gF/F97T/ins97aE/T98G/F99L/C122S/G151N/Q175L/Q192V (enzyme) VVGGTDADEGEWPWQVSLHALGFGHSCGASLISPNWLVSAAHCYIDFRGRRFSDPTQWTAFLGLHDQSQRSAPGVQERRLKRIISHPFFNDTEGLDYDIALLELEKPAEYSSMVRPISLPDASHVFPAGKAIWVTGWGHTQYGGTNALILQKGEIRVINQTTCENLLPQLITPRMMCVGFLSGGVDSCVGDSGGPLSSVEADGRIFQAGVVSWGDGCAQRNKPGVYTRLPLFRDWIKENTGV"
observedmeasurement = 1.96


As a next step, examine the binder that follows.
Exercise: # return recorded EC50 (nM), cleavage of purified hC3 in vitro for input Q38H/I41A/D60bV/F60eR/Y60gW/D96I/ins97aN/F97Y/T98G/F99L/C122S/G151H/Q175L/Q192D (enzyme) VVGGTDADEGEWPWQVSLHALGHGHACGASLISPNWLVSAAHCYIDVRGRRWSDPTQWTAFLGLHDQSQRSAPGVQERRLKRIISHPFFNIYNGLDYDIALLELEKPAEYSSMVRPISLPDASHVFPAGKAIWVTGWGHTQYGGTHALILQKGEIRVINQTTCENLLPQLITPRMMCVGFLSGGVDSCDGDSGGPLSSVEADGRIFQAGVVSWGDGCAQRNKPGVYTRLPLFRDWIKENTGV
Key: 1.57
